Test system: winter wheat (Vershin variety)
Assay: Winter wheat seed treatment with BHMPA salts: germination energy and germination rate
Format: in vivo
Details: winter wheat Vershin; 1·10^−9% solution
Param threshold (90%) applies to Germination energy; output Fulfilled when value >= threshold, Not fulfilled when value < threshold.

In [3]: df
Out[3]:
                                   molecule   answer_label
0  O=P([O-])(CO)CO.O=P([O-])(CO)CO.[Ca+2] [Ca-salt, Calcium BHMPA Salt]  Not fulfilled
1  O.O.O=P([O-])(CO)CO.O=P([O-])(CO)CO.[Co+2] [Co-salt, Cobalt BHMPA Salt]      Fulfilled
2  O.O.O=P([O-])(CO)CO.O=P([O-])(CO)CO.[Mn+2] [Mn-salt, Manganese BHMPA Salt]  Not fulfilled
3  O=P([O-])(CO)CO.O=P([O-])(CO)CO.[Zn+2] [Zn-salt, Zinc BHMPA Salt]      Fulfilled

* * *

Test system: winter wheat (Vershin variety)
Experiment: Winter wheat seed treatment with BHMPA salts: germinating power (length and mass of roots and sprouts)
Format: in vivo
Conditions: 1·10^−12% solution
hey, just use class 1 if measured Mass, wet, sprout is less than 5 g/100 plantlings, otherwise class 0

In [3]: df
Out[3]:
                                   molecule  answer_label
0  O=P([O-])(CO)CO.O=P([O-])(CO)CO.[Mg+2] [Mg-salt, Magnesium BHMPA Salt]       class 0
1  O.O.O=P([O-])(CO)CO.O=P([O-])(CO)CO.[Mn+2] [Mn-salt, Manganese BHMPA Salt]       class 1
2  O=P([O-])(CO)CO.O=P([O-])(CO)CO.[Ca+2] [Ca-salt, Calcium BHMPA Salt]       class 0
3  O.O.O=P([O-])(CO)CO.O=P([O-])(CO)CO.[Co+2] [Co-salt, Cobalt BHMPA Salt]       class 1

* * *

Each item that follows carries a reported dry mass of the sprouts increased by.
Tested on: rice (Diamant variety)
Test: Rice seed treatment with BHMPA salts: germinating power
Type: in vivo
Conditions: rice; vs control; 1·10^−9% solution
Readout Type: dry mass of the sprouts increased by (%)

In [3]: df
Out[3]:
                                   compound                  system                          readout_type  recorded_value
0  O.O.O=P([O-])(CO)CO.O=P([O-])(CO)CO.[Co+2] [Co-salt, Cobalt BHMPA Salt]  rice (Diamant variety)  dry mass of the sprouts increased by              75
1  O=P([O-])(CO)CO.O=P([O-])(CO)CO.[Zn+2] [Zn-salt, Zinc BHMPA Salt]  rice (Diamant variety)  dry mass of the sprouts increased by              50
2  O=P([O-])(CO)CO.O=P([O-])(CO)CO.[Ca+2] [Ca-salt, Calcium BHMPA Salt]  rice (Diamant variety)  dry mass of the sprouts increased by              52
3  O.O.O=P([O-])(CO)CO.O=P([O-])(CO)CO.[Mn+2] [Mn-salt, Manganese BHMPA Salt]  rice (Diamant variety)  dry mass of the sprouts increased by              69

* * *

Below, each entry is listed with its recorded Mass, wet, root, + % to control.
Tested on: rice (Diamant variety)
Assay: Rice seed treatment with BHMPA salts: germinating power
Assay type: in vivo
Details: rice seed treatment, comparison with Melaphen (Table XXXIII), solution 1 · 10^−9%
Readout Type: Mass, wet, root, + % to control (%)

In [3]: df
Out[3]:
                                   compound  result_unit  recorded_value
0  O.O.O=P([O-])(CO)CO.O=P([O-])(CO)CO.[Co+2] [Co-salt, Cobalt BHMPA Salt]            %              40
1  O.O.O=P([O-])(CO)CO.O=P([O-])(CO)CO.[Mn+2] [Mn-salt, Manganese BHMPA Salt]            %              37
2  O=P([O-])(CO)CO.O=P([O-])(CO)CO.[Zn+2] [Zn-salt, Zinc BHMPA Salt]            %              57
3  O=P([O-])(CO)CO.O=P([O-])(CO)CO.[Ca+2] [Ca-salt, Calcium BHMPA Salt]            %              36
